Catalogue of compounds with associated MICb Combined
# Tested on: EKO-35
# Format: cell-based, Escherichia coli
# Particulars: EKO-35; antibiotic in combination with PAβN
Just the number please, in µg/mL, no unit attached.

Take a look at these entries with their results.
{"Compound": "CC(=O)O[C@H]1C[C@@]2(C)[C@@H](C[C@@H](O)[C@H]3[C@@]4(C)CC[C@@H](O)[C@@H](C)[C@@H]4CC[C@@]32C)/C1=C(\\CCC=C(C)C)C(=O)O [fusidic acid]", "MICb Combined [µg/mL]": 0.13}
{"Compound": "CC(=O)NC[C@H]1CN(c2ccc(N3CCOCC3)c(F)c2)C(=O)O1 [linezolid]", "MICb Combined [µg/mL]": 4}
{"Compound": "CO[C@@H]1[C@@H](OC(N)=O)[C@@H](O)[C@H](Oc2ccc3c(O)c(NC(=O)c4ccc(O)c(CC=C(C)C)c4)c(=O)oc3c2C)OC1(C)C [novobiocin]", "MICb Combined [µg/mL]": 1}
{"Compound": "Cc1onc(-c2ccccc2)c1C(=O)N[C@@H]1C(=O)N2[C@@H]1SC(C)(C)[C@@H]2C(=O)O [oxacillin]", "MICb Combined [µg/mL]": 0.13}

Consider the record given below.
// query For CC[C@H]1OC(=O)[C@H](C)[C@@H](O[C@H]2C[C@@](C)(OC)[C@@H](O)[C@H](C)O2)[C@H](C)[C@@H](O[C@@H]2O[C@H](C)C[C@H](N(C)C)[C@H]2O)[C@](C)(O)C[C@@H](C)C(=O)[C@H](C)[C@@H](O)[C@]1(C)O [erythromycin] , write its MICb Combined.
// result 0.06

----------
# Tested on: ΔtolC-Pore
# Method summary: microbe, parasite or virus in culture
# Type: cell-based, Escherichia coli
# Particulars: Escherichia coli, 18 h, read-out: Minimum inhibitory concentration, ΔtolC-Pore
Test readout: MIC (µg/mL)
Numeric only. Scale: µg/mL

Illustrative cases are given below, each with its answer.
{"Compound": "[H]/N=C(\\N/C(=N/[H])NCCCCCCNC(=N)NC(=N)Nc1ccc(Cl)cc1)Nc1ccc(Cl)cc1", "MIC / µg/mL": 0.391}
{"Compound": "COc1ccc(C[C@H](N)C(=O)N[C@H]2[C@@H](O)[C@H](n3cnc4c(N(C)C)ncnc43)O[C@@H]2CO)cc1", "MIC / µg/mL": 1.56}
{"Compound": "[H]/N=C(/N)N[C@H]1[C@H](O)[C@@H](O)[C@H](O[C@@H]2O[C@@H](C)[C@](O)(C=O)[C@H]2O[C@@H]2O[C@@H](CO)[C@H](O)[C@@H](O)[C@@H]2NC)[C@@H](N/C(N)=N\\[H])[C@@H]1O", "MIC / µg/mL": 1.56}
{"Compound": "CCCCCCCCCCCCOS(=O)(=O)[O-].[Na+] [SDS, sodium dodecyl sulphate]", "MIC / µg/mL": 15.6}
{"Compound": "CC[C@H]1OC(=O)[C@H](C)[C@@H](O[C@H]2C[C@@](C)(OC)[C@@H](O)[C@H](C)O2)[C@H](C)[C@@H](O[C@@H]2O[C@H](C)C[C@H](N(C)C)[C@H]2O)[C@](C)(O)C[C@@H](C)CN(C)[C@H](C)[C@@H](O)[C@]1(C)O", "MIC / µg/mL": 0.049}

// query Return the recorded MIC value; entry: `Cc1onc(-c2ccccc2)c1C(=O)N[C@@H]1C(=O)N2[C@@H]1SC(C)(C)[C@@H]2C(=O)O`
// result 0.313

// query Note down MIC recorded for `CC(=O)NC[C@H]1CN(c2ccc(N3CCOCC3)c(F)c2)C(=O)O1`
// result 3.91

// query Please give measured MIC of the following entry: `CC[C@H]1OC(=O)[C@H](C)[C@@H](O[C@H]2C[C@@](C)(OC)[C@@H](O)[C@H](C)O2)[C@H](C)[C@@H](O[C@@H]2O[C@H](C)C[C@H](N(C)C)[C@H]2O)[C@](C)(O)C[C@@H](C)C(=O)[C@H](C)[C@@H](O)[C@]1(C)O`
// result 0.195

FYI, the data here is from patent US20230407243A1.
